Source listed as ChEMBL document CHEMBL5154916.

assay: […] in po dosed Wister rat assessed as motor impairment by assessing NOAEL by spontaneous motor activity test; assay type: organism-based; settings: Wistar, in vivo
attribute measured: NOAEL

Query string: // lookup NOAEL for Cc1onc(-c2ccc(F)cc2)c1COc1ccc2c(n1)CCN(C(=O)CS(C)(=O)=O)C2
Result string: ≥ 100 mg/kg

* * *

target: GABA-A receptor; alpha-5/beta-3/gamma-2 (Homo sapiens) (UniProt P18507+P28472+P31644); test: Negative allosteric modulation activity at human recombinant alpha5beta3gamma2 GABAA receptor stably expressed in HEK293 cells assessed as modulation at alpha5 subunit at 1 uM by Patch clamp method; format: cell-based; conditions: filed as negative allosteric modulator
attribute measured: Activity (%)
Return type: number; implicit unit %.

[
  {
    "compound": "Cc1onc(-c2ccc(F)cc2)c1COc1ccc2c(n1)CCN(CC1CCCO1)C2=O (centres undefined)",
    "test target": "GABA-A receptor; alpha-5/beta-3/gamma-2 (Homo sapiens) (UniProt P18507+P28472+P31644)",
    "experimental result": -29
  },
  {
    "compound": "Cc1onc(-c2ccc(F)cc2)c1COc1ccc2c(n1)CCN(C(=O)c1ccno1)C2",
    "test target": "GABA-A receptor; alpha-5/beta-3/gamma-2 (Homo sapiens) (UniProt P18507+P28472+P31644)",
    "experimental result": -13
  },
  {
    "compound": "Cc1onc(-c2ccc(F)cc2)c1COc1ccc2c(n1)CCN(C(=O)CS(C)(=O)=O)C2",
    "test target": "GABA-A receptor; alpha-5/beta-3/gamma-2 (Homo sapiens) (UniProt P18507+P28472+P31644)",
    "experimental result": -24
  },
  {
    "compound": "Cc1onc(-c2ccc(F)cc2)c1COc1ccc2c(n1)CCN(C)C2=O",
    "test target": "GABA-A receptor; alpha-5/beta-3/gamma-2 (Homo sapiens) (UniProt P18507+P28472+P31644)",
    "experimental result": -21
  },
  {
    "compound": "Cc1nnn(-c2ccc(F)cc2)c1COc1ccc2c(n1)CCN(C(=O)C1CC(=O)N(C)C1)C2 (centres undefined)",
    "test target": "GABA-A receptor; alpha-5/beta-3/gamma-2 (Homo sapiens) (UniProt P18507+P28472+P31644)",
    "experimental result": -32
  },
  {
    "compound": "Cc1onc(-c2ccc(F)cc2)c1COc1ccc2c(n1)CCN(C(=O)N1CCOCC1)C2",
    "test target": "GABA-A receptor; alpha-5/beta-3/gamma-2 (Homo sapiens) (UniProt P18507+P28472+P31644)",
    "experimental result": -15
  }
]

Query string: What value of measured Activity is listed for Cc1onc(-c2ccc(F)cc2)c1COc1ccc2c(n1)CCN(C(=O)C1CCOCC1)C2 ?
Result string: -20

Query string: Which measured Activity value corresponds to Cc1onc(-c2ccc(F)cc2)c1COc1ccc2c(n1)CCN(C(=O)N1CCCC1)C2 ?
Result string: -12

Query string: Request the reported Activity associated with Cc1nnn(-c2ccc(F)cc2)c1COc1ccc2c(n1)CCN(C(=O)C1CCOC1)C2 (centres undefined)
Result string: -34

* * *

assay: Half life in Wistar rat total plasma at 1 mg/kg, po by HPLC-MS/MS analysis; format: ADME, organism-based
attribute measured: half-life

[
  {
    "chemical smiles": "CC(=O)N1Cc2ccc(OCc3c(C)nnn3-c3ccc(F)cc3)nc2C1",
    "half-life": "51.6 min"
  }
]

Query string: So what does the record say about half-life for CC(=O)N1CCc2nc(OCc3c(C)nnn3-c3ccc(F)cc3)ccc2C1 ?
Result string: 42.6 min

Query string: // returns reported half-life for input Cc1onc(-c2ccc(F)cc2)c1COc1ccc2c(n1)CCN(C(=O)CS(C)(=O)=O)C2
Result string: 70.2 min

* * *

test: Bioavailability in Wistar rat total plasma at 1 mg/kg, iv by HPLC-MS/MS analysis; type: ADME, organism-based
attribute measured: bioavailability

Would you please look over these solved cases?
[
  {
    "chemical smiles": "Cc1onc(-c2ccc(F)cc2)c1COc1ccc2c(n1)CCN(C(=O)CS(C)(=O)=O)C2",
    "bioavailability": "35.8%"
  },
  {
    "chemical smiles": "CC(=O)N1CCc2nc(OCc3c(C)nnn3-c3ccc(F)cc3)ccc2C1",
    "bioavailability": "9.4%"
  }
]

# context switch: different molecule, same bioavailability
Query string: Param item = CC(=O)N1Cc2ccc(OCc3c(C)nnn3-c3ccc(F)cc3)nc2C1 ; retrieve measured bioavailability.
Result string: 14.5%

* * *

target: Voltage-gated inwardly rectifying potassium channel KCNH2 (Homo sapiens, UniProt Q12809); experiment: Inhibition of hERG expressed in CHO cells stably at -80 mV holding potential by automated patch clamp method
Sequence (Q12809 whole entry): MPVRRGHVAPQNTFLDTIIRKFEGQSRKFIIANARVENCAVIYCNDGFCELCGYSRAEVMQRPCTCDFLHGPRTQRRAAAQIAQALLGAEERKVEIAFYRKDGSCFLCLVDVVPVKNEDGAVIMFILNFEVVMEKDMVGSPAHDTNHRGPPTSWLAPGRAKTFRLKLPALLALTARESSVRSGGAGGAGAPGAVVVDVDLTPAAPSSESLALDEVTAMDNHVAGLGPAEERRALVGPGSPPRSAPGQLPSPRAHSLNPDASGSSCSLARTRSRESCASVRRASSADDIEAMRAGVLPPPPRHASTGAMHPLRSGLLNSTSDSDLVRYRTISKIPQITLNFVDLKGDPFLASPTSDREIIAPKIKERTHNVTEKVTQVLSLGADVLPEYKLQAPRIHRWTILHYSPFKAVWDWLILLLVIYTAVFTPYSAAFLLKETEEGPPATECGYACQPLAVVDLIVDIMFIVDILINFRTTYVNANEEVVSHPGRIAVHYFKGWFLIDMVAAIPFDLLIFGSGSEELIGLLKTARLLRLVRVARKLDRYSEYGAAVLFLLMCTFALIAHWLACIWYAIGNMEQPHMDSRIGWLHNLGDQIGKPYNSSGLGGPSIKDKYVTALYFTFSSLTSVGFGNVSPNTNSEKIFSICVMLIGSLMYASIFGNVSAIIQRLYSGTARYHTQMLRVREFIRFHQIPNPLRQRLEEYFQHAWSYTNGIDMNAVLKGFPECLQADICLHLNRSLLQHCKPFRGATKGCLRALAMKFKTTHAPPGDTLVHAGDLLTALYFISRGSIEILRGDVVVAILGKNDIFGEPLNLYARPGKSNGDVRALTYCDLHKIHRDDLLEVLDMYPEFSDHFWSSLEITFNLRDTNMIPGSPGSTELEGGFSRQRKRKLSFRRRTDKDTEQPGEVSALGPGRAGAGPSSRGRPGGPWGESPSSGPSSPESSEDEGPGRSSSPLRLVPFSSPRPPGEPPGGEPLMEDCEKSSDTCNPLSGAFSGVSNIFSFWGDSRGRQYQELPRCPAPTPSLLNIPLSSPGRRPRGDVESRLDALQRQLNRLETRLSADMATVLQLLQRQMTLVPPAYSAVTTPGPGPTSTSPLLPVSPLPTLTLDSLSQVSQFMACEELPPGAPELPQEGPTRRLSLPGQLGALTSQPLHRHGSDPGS
pIC50: −log10 of the molar value.
Record Y whenever pIC50 is at 5 or higher; record N when lower.

Solved cases below.
[
  {
    "compound": "CC(=O)N1CCc2nc(OCc3c(C)nnn3-c3ccc(F)cc3)ccc2C1",
    "group": "N"
  },
  {
    "compound": "Cc1onc(-c2ccc(F)cc2)c1COc1ccc2c(n1)CCN(C(=O)C1CCOC1)C2 (stereo unspecified)",
    "group": "Y"
  },
  {
    "compound": "Cc1nnn(-c2ccc(F)cc2)c1COc1ccc2c(n1)CCN(CCS(C)(=O)=O)C2=O",
    "group": "N"
  },
  {
    "compound": "Cc1nnn(-c2ccc(F)cc2)c1COc1ccc2c(n1)CCN(C(=O)C1CCCO1)C2 (stereo unspecified)",
    "group": "N"
  },
  {
    "compound": "Cc1onc(-c2ccc(F)cc2)c1COc1ccc2c(n1)CCN(C(=O)CCS(C)(=O)=O)C2",
    "group": "Y"
  },
  {
    "compound": "Cc1onc(-c2ccc(F)cc2)c1COc1ccc2c(n1)CCN(C)C2=O",
    "group": "Y"
  }
]

Query string: Check this compound for pIC50 at or above 5: Cc1nnn(-c2ccc(F)cc2)c1COc1ccc2c(n1)CCN(C(=O)C1CC(=O)N(C)C1)C2 (stereo unspecified)
Result string: N

Query string: Please tell me: is the compound Cc1onc(-c2ccc(F)cc2)c1COc1ccc2c(n1)CCN(C(=O)C1CC1)C2 at or over 5 in terms of pIC50?
Result string: Y

Query string: # bool: pIC50 of Cc1onc(-c2ccc(F)cc2)c1COc1ccc2c(n1)CCN(CCS(C)(=O)=O)C2=O >= 5
Result string: Y

Query string: Please tell me: is the compound Cc1onc(-c2ccc(F)cc2)c1COc1ccc2c(n1)CCN(C1CCOC1)C2=O (stereo unspecified) at or over 5 in terms of pIC50?
Result string: Y

Query string: Quick check: does Cc1nnn(-c2ccc(F)cc2)c1COc1ccc2c(n1)CCN(C(=O)NC1CC(=O)N(C)C1)C2 (stereo unspecified) have pIC50 greater than or equal to 5?
Result string: N

Query string: Test whether the compound Cc1nnn(-c2ccc(F)cc2)c1COc1ccc2c(n1)CCN(C(=O)NC1CCOC1)C2 (stereo unspecified) records pIC50 of 5 or higher.
Result string: N

Query string: Kindly determine if pIC50 recorded for Cc1onc(-c2ccc(F)cc2)c1COc1ccc2c(n1)CCN(C(C)C)C2=O is above or exactly 5.
Result string: Y

Query string: Decide: pIC50 of Cc1onc(-c2ccc(F)cc2)c1COc1ccc2c(n1)CCN(CC1CCCO1)C2=O (stereo unspecified) >= 5?
Result string: Y

Query string: # bool: pIC50 of Cc1onc(-c2ccc(F)cc2)c1COc1ccc2c(n1)CCN(C(=O)C1CCC1)C2 >= 5
Result string: N

Query string: Can CC(=O)N1CCc2nc(OCc3c(-c4ccc(F)cc4)noc3C)ccc2C1 be said to have pIC50 at or above 5?
Result string: Y

Query string: Has Cc1onc(-c2ccc(F)cc2)c1COc1ccc2c(n1)CCN(CC1CCCS1(=O)=O)C2=O (stereo unspecified) a recorded pIC50 greater than or equal to 5?
Result string: Y

Query string: Determine whether measured pIC50 meets or exceeds 5 for Cc1onc(-c2ccc(F)cc2)c1COc1ccc2c(n1)CCN(Cc1ccno1)C2=O
Result string: Y

* * *

test: Thermodynamic solubility of the compound at pH 6.5; assay type: physicochemical; settings: buffer, read-out: Therm_solubility
attribute measured: solubility thermodynamic (µM)
Give the number; µM is assumed, so skip it.

Query string: Sample Cc1onc(-c2ccc(F)cc2)c1COc1ccc2c(n1)CCN(C(=O)CS(C)(=O)=O)C2 — what was its solubility thermodynamic?
Result string: 9.8

* * *

Quick reference: log10 of microsomal CLint at 2.5 µM of the listed items.
assay: Metabolic stability in human liver microsomes assessed as intrinsic clearance at 2.5 uM; assay type: ADME, Microsome; conditions: read-out: CLH
Units before log transform: µL/min/mg; reported quantity: microsomal CLint at 2.5 µM; transform: log10.

Known log10 of microsomal CLint at 2.5 µM results, listed for orientation:
[
  {
    "compound": "Cc1onc(-c2ccc(F)cc2)c1COc1ccc2c(n1)CCN(C(=O)C1CCS(=O)(=O)CC1)C2",
    "log10 of microsomal CLint at 2.5 µM": 1.00
  },
  {
    "compound": "Cc1nnn(-c2ccc(F)cc2)c1COc1ccc2c(n1)CCN(C(=O)NC1CC(=O)N(C)C1)C2 (stereo not given)",
    "log10 of microsomal CLint at 2.5 µM": 0.60
  },
  {
    "compound": "Cc1onc(-c2ccc(F)cc2)c1COc1ccc2c(n1)CCN(C1CCOC1)C2=O (stereo not given)",
    "log10 of microsomal CLint at 2.5 µM": 1.46
  },
  {
    "compound": "CC(=O)N1CCc2nc(OCc3c(-c4ccc(F)cc4)noc3C)ccc2C1",
    "log10 of microsomal CLint at 2.5 µM": 1.87
  }
]

Query string: Any idea what its log10 of microsomal CLint at 2.5 µM is? The compound is Cc1nnn(-c2ccc(F)cc2)c1COc1ccc2c(n1)CCN(C(=O)C1CCCO1)C2 (stereo not given)
Result string: 1.18
